# targetOrTestSystem: cIAP1-BIR2 (Homo sapiens (Human))
# Sequence (Q13490 173-257): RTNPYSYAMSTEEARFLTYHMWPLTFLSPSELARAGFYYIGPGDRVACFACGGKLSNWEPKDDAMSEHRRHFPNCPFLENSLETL
# experimentSummary: BIR binding assay (FRET competition), cIAP1 BIR2
pIC50: −log10 of the molar value.
observable: pIC50

givensmiles=C[C@@H]1CN(CC(=O)N2CC(C)(C)c3[nH]c(=O)c(Cc4ccc(F)cc4)cc32)[C@@H](CN2CCO[C@H](COc3ccccc3OC[C@@H]3CN(C[C@H]4CN[C@H](C)CN4CC(=O)N4CC(C)(C)c5[nH]c(=O)c(Cc6ccc(F)cc6)cc54)CCO3)C2)CN1 targetortestsystem="cIAP1-BIR2 (Homo sapiens (Human))" recordedmeasurement="5.50 to 6.00"
givensmiles=C[C@@H]1CN(CC(=O)N2CC(C)(C)c3[nH]c(=O)c(Cc4ccc(F)cc4)cc32)[C@@H](CN2CCN(Cc3cn(CCC(=O)N4CCN(C[C@H]5CN[C@H](C)CN5CC(=O)N5CC(C)(C)c6[nH]c(=O)c(Cc7ccc(F)cc7)cc65)[C@H](C)C4)nn3)C[C@H]2C)CN1 targetortestsystem="cIAP1-BIR2 (Homo sapiens (Human))" recordedmeasurement="5.50 to 6.00"
givensmiles=C[C@@H]1CN(CC(=O)N2CC(C)(C)c3[nH]c(=O)c(Cc4c(F)c(F)c(F)c(F)c4F)cc32)[C@@H](CN2CCO[C@H](C(=O)NCc3ccc(CNC(=O)[C@@H]4CN(C[C@H]5CN[C@H](C)CN5CC(=O)N5CC(C)(C)c6[nH]c(=O)c(Cc7c(F)c(F)c(F)c(F)c7F)cc65)CCO4)cc3)C2)CN1 targetortestsystem="cIAP1-BIR2 (Homo sapiens (Human))" recordedmeasurement="5.00 to 5.50"
givensmiles=C[C@@H]1CN(CC(=O)N2CC(C)(C)c3[nH]c(=O)c(Cc4ccc(F)cc4)cc32)[C@@H](CN2CCO[C@H](COc3cc(F)cc(OC[C@@H]4CN(C[C@H]5CN[C@H](C)CN5CC(=O)N5CC(C)(C)c6[nH]c(=O)c(Cc7ccc(F)cc7)cc65)CCO4)c3)C2)CN1 targetortestsystem="cIAP1-BIR2 (Homo sapiens (Human))" recordedmeasurement="5.00 to 5.50"

----------
# Tested on: Jurkat HIV-luciferase clones
# experimentSummary: Jurkat latency reversal assay
# Type: cell-based
# testContext: Homo sapiens, 48 h; Jurkat latency reversal assay potency; read-out: Jurkat pEC50 (converted)
EC50 values by entry
observable: EC50

molecule="C[C@@H]1CN(CC(=O)N2CC(C)(C)c3[nH]c(=O)c(Cc4ccc(F)cc4)cc32)[C@@H](CN2CCC(CC(=O)N(C)Cc3ccc(CN(C)C(=O)CC4CCN(C[C@H]5CN[C@H](C)CN5CC(=O)N5CC(C)(C)c6[nH]c(=O)c(Cc7ccc(F)cc7)cc65)CC4)cc3)CC2)CN1 [Example 106]" observable=EC50 recordedmeasurement="0.0126 to 0.0631 µM"
molecule="C[C@@H]1CN(CC(=O)N2CC(C)(C)c3[nH]c(=O)c(Cc4ccc(F)cc4)cc32)[C@@H](CN2CCO[C@H](COc3ccc(C#N)c(OC[C@@H]4CN(C[C@H]5CN[C@H](C)CN5CC(=O)N5CC(C)(C)c6[nH]c(=O)c(Cc7ccc(F)cc7)cc65)CCO4)c3)C2)CN1 [Example 77]" observable=EC50 recordedmeasurement="0.0126 to 0.0631 µM"
molecule="C[C@@H]1CN(CC(=O)N2CC(C)(C)c3ncc(Cc4ccc(Br)cc4)cc32)[C@@H](CN2CCO[C@H](COc3cccc(OC[C@@H]4CN(C[C@H]5CN[C@H](C)CN5CC(=O)N5CC(C)(C)c6ncc(Cc7ccc(Br)cc7)cc65)CCO4)c3)C2)CN1 [Compound 153]" observable=EC50 recordedmeasurement="0.0631 to 0.316 µM"
molecule="C[C@@H]1CN(CC(=O)N2CC(C)(C)c3[nH]c(=O)c(Cc4ccc(F)cc4F)cc32)[C@@H](CN2CCO[C@H](COc3cccc(OC[C@@H]4CN(C[C@H]5CN[C@H](C)CN5CC(=O)N5CC(C)(C)c6[nH]c(=O)c(Cc7ccc(F)cc7F)cc65)CCO4)c3)C2)CN1 [Compound 190]" observable=EC50 recordedmeasurement="0.00049 to 0.0126 µM"
